Kindly state growth at 0.01 µM for each of the entries shown.
tested on: RXF 393; test: Growth inhibition of human RXF393 cells assessed as cell growth at 10^-8 M incubated for 48 hrs by sulforhodamine B assay relative to control; format: functional; details: RXF 393, 48 h, read-out: Activity
Response body: numeric value in %, unit text excluded.

Quick one: growth at 0.01 µM for C#C[C@@]1(O)[C@@H](CO)O[C@@H](n2cc(Br)c3c(N)ncnc32)[C@@H]1O ?
99

Quick one: growth at 0.01 µM for C#C[C@@]1(O)[C@@H](CO)O[C@@H](n2cc(F)c3c(N)ncnc32)[C@@H]1O ?
94

Quick one: growth at 0.01 µM for C#C[C@@]1(O)[C@@H](CO)O[C@@H](n2ccc3c(N)ncnc32)[C@@H]1O ?
99

* * *

Kindly state CC50 for each of the entries shown.
test system: NCI-H322M; assay: Cytotoxicity against human NCI-H322M cells after 48 hrs by SRB assay; type: functional; details: read-out: pLC50 (the source's name) (converted)

Quick one: CC50 for C#C[C@@]1(O)[C@@H](CO)O[C@@H](n2cc(I)c3c(N)ncnc32)[C@@H]1O ?
> 100 µM

Quick one: CC50 for C#C[C@@]1(O)[C@@H](CO)O[C@@H](n2cc(Br)c3c(N)ncnc32)[C@@H]1O ?
> 100 µM

Quick one: CC50 for C#C[C@@]1(O)[C@@H](CO)O[C@@H](n2cc(Cl)c3c(N)ncnc32)[C@@H]1O ?
> 100 µM

Quick one: CC50 for C#C[C@@]1(O)[C@@H](CO)O[C@@H](n2ccc3c(N)ncnc32)[C@@H]1O ?
50.1 µM

* * *

Kindly state CC50 for each of the entries shown.
system: HL-60(TB); assay: Cytotoxicity against human HL-60(TB) cells after 48 hrs by SRB assay; assay type: functional; conditions: HL-60, 48 h, read-out: pLC50 (the source's name) (converted)

Quick one: CC50 for C#C[C@@]1(O)[C@@H](CO)O[C@@H](n2ccc3c(N)ncnc32)[C@@H]1O ?
> 100 µM

Quick one: CC50 for C#C[C@@]1(O)[C@@H](CO)O[C@@H](n2cc(Cl)c3c(N)ncnc32)[C@@H]1O ?
> 100 µM

Quick one: CC50 for C#C[C@@]1(O)[C@@H](CO)O[C@@H](n2cc(Br)c3c(N)ncnc32)[C@@H]1O ?
5.25 µM

Quick one: CC50 for C#C[C@@]1(O)[C@@H](CO)O[C@@H](n2cc(F)c3c(N)ncnc32)[C@@H]1O ?
> 100 µM

Quick one: CC50 for C#C[C@@]1(O)[C@@H](CO)O[C@@H](n2cc(I)c3c(N)ncnc32)[C@@H]1O ?
> 100 µM

* * *

system: MDA-MB-468; test: Cytotoxicity against human MDA-MB-468 cells after 48 hrs by SRB assay; assay type: functional; conditions: MDA-MB-468, 48 h, read-out: TGI
Kindly state TGI for each of the entries shown.
Response body: numeric value in nM, unit text excluded.

Quick one: TGI for C#C[C@@]1(O)[C@@H](CO)O[C@@H](n2cc(F)c3c(N)ncnc32)[C@@H]1O ?
1530

Quick one: TGI for C#C[C@@]1(O)[C@@H](CO)O[C@@H](n2ccc3c(N)ncnc32)[C@@H]1O ?
3330

* * *

tested on: MCF7; experiment: Cytotoxicity against human MCF7 cells after 48 hrs by SRB assay; assay type: functional; details: MCF7, 48 h, read-out: TGI
endpoint-label: TGI

Quick one: TGI for C#C[C@@]1(O)[C@@H](CO)O[C@@H](n2cc(Br)c3c(N)ncnc32)[C@@H]1O ?
1190 to 1810 nM

Quick one: TGI for C#C[C@@]1(O)[C@@H](CO)O[C@@H](n2cc(I)c3c(N)ncnc32)[C@@H]1O ?
> 100000 nM

Quick one: TGI for C#C[C@@]1(O)[C@@H](CO)O[C@@H](n2cc(Cl)c3c(N)ncnc32)[C@@H]1O ?
1040 to 1160 nM

Quick one: TGI for C#C[C@@]1(O)[C@@H](CO)O[C@@H](n2ccc3c(N)ncnc32)[C@@H]1O ?
5660 nM

* * *

tested on: ACHN; test: Growth inhibition of human ACHN cells assessed as cell growth at 10^-6 M incubated for 48 hrs by sulforhodamine B assay relative to control; assay type: functional; conditions: read-out: Activity
Lab note: anything with growth at 1 µM at or over 8% counts as yes; the rest go in no.

I'd appreciate it if you could say whether C#C[C@@]1(O)[C@@H](CO)O[C@@H](n2cc(F)c3c(N)ncnc32)[C@@H]1O has growth at 1 µM at least equal to 8%.
yes

I'd appreciate it if you could say whether C#C[C@@]1(O)[C@@H](CO)O[C@@H](n2cc(Cl)c3c(N)ncnc32)[C@@H]1O has growth at 1 µM at least equal to 8%.
no

I'd appreciate it if you could say whether C#C[C@@]1(O)[C@@H](CO)O[C@@H](n2cc(I)c3c(N)ncnc32)[C@@H]1O has growth at 1 µM at least equal to 8%.
yes

I'd appreciate it if you could say whether C#C[C@@]1(O)[C@@H](CO)O[C@@H](n2ccc3c(N)ncnc32)[C@@H]1O has growth at 1 µM at least equal to 8%.
yes

* * *

test system: SK-MEL-2; experiment: Cytotoxicity against human SK-MEL-2 cells after 48 hrs by SRB assay; assay type: functional; details: SK-MEL-2, 48 h, read-out: LC50 (the source's name)
endpoint-label: CC50

What value of CC50 on SK-MEL-2 does C#C[C@@]1(O)[C@@H](CO)O[C@@H](n2cc(F)c3c(N)ncnc32)[C@@H]1O have?
> 100 µM

What value of CC50 on SK-MEL-2 does C#C[C@@]1(O)[C@@H](CO)O[C@@H](n2ccc3c(N)ncnc32)[C@@H]1O have?
> 100 µM

What value of CC50 on SK-MEL-2 does C#C[C@@]1(O)[C@@H](CO)O[C@@H](n2cc(Cl)c3c(N)ncnc32)[C@@H]1O have?
> 100 µM

What value of CC50 on SK-MEL-2 does C#C[C@@]1(O)[C@@H](CO)O[C@@H](n2cc(Br)c3c(N)ncnc32)[C@@H]1O have?
49.5 to 100 µM

What value of CC50 on SK-MEL-2 does C#C[C@@]1(O)[C@@H](CO)O[C@@H](n2cc(I)c3c(N)ncnc32)[C@@H]1O have?
7.77 to 100 µM

* * *

test system: NCI-H460; assay: Cytotoxicity against human NCI-H460 cells after 48 hrs by SRB assay; type: functional; settings: NCI-H460, 48 h, read-out: TGI
Kindly state TGI for each of the entries shown.
Response body: numeric value in µM, unit text excluded.

Quick one: TGI for C#C[C@@]1(O)[C@@H](CO)O[C@@H](n2ccc3c(N)ncnc32)[C@@H]1O ?
10.6

Quick one: TGI for C#C[C@@]1(O)[C@@H](CO)O[C@@H](n2cc(F)c3c(N)ncnc32)[C@@H]1O ?
10.2

* * *

tested on: MDA-MB-468; test: Cytotoxicity against human MDA-MB-468 cells after 48 hrs by SRB assay; assay type: functional; settings: MDA-MB-468, 48 h, read-out: pLC50 (the source's name) (converted)
endpoint-label: CC50 (µM)
Response body: numeric value in µM, unit text excluded.

Quick one: CC50 for C#C[C@@]1(O)[C@@H](CO)O[C@@H](n2cc(Br)c3c(N)ncnc32)[C@@H]1O ?
1.91

Quick one: CC50 for C#C[C@@]1(O)[C@@H](CO)O[C@@H](n2cc(F)c3c(N)ncnc32)[C@@H]1O ?
7.94

Quick one: CC50 for C#C[C@@]1(O)[C@@H](CO)O[C@@H](n2ccc3c(N)ncnc32)[C@@H]1O ?
8.51

Quick one: CC50 for C#C[C@@]1(O)[C@@H](CO)O[C@@H](n2cc(Cl)c3c(N)ncnc32)[C@@H]1O ?
2.09

* * *

Kindly state TGI for each of the entries shown.
system: SF-268; test: Cytotoxicity against human SF268 cells after 48 hrs by SRB assay; format: functional; settings: SF-268, 48 h, read-out: TGI
Response body: numeric value in µM, unit text excluded.

Quick one: TGI for C#C[C@@]1(O)[C@@H](CO)O[C@@H](n2cc(F)c3c(N)ncnc32)[C@@H]1O ?
78.3

Quick one: TGI for C#C[C@@]1(O)[C@@H](CO)O[C@@H](n2ccc3c(N)ncnc32)[C@@H]1O ?
26.1

* * *

system: UACC-257; assay: Cytotoxicity against human UACC257 cells after 48 hrs by SRB assay; assay type: functional; conditions: UACC-257, 48 h, read-out: TGI
endpoint-label: TGI

Quick one: TGI for C#C[C@@]1(O)[C@@H](CO)O[C@@H](n2cc(Br)c3c(N)ncnc32)[C@@H]1O ?
49.2 to 77 µM

Quick one: TGI for C#C[C@@]1(O)[C@@H](CO)O[C@@H](n2cc(Cl)c3c(N)ncnc32)[C@@H]1O ?
63.8 to 100 µM

Quick one: TGI for C#C[C@@]1(O)[C@@H](CO)O[C@@H](n2cc(I)c3c(N)ncnc32)[C@@H]1O ?
18.6 to 41.5 µM
